Would you mind telling me the reported inhibition of each entry?
# Test system: Botulinum neurotoxin type F light chain protease (Clostridium botulinum)
# EXPERIMENT_SUMMARY: Botulinum neurotoxin type F light chain protease inhibition, multiplex microsphere flow cytometry, validation set (AID 588459)
# MEASUREMENT_PARAMETERS: multiplex microsphere protease substrate cleavage assay, at 10 µM, active compounds read high
Answers are plain numbers, in %.

Below: 4 compounds and their reported inhibition.
COMPOUND	UNIT_SYMBOL	inhibition
O=C(Oc1ccc2c3c(c(=O)oc2c1)CCCC3)c1ccco1	%	-0.9
O=C1C(=O)c2ccccc2-c2ccccc21	%	5.3
CN(C)c1cc(NC(=O)CN2CCOCC2)c2ccccc2n1	%	0
CC(=O)O[C@H]1C[C@@]2(C)[C@@H](C[C@@H](O)[C@H]3[C@@]4(C)CC[C@@H](O)[C@@H](C)C4CC[C@@]32C)/C1=C(\CCC=C(C)C)C(=O)O (some centres undefined)	%	-2.5

Hi there! I need inhibition for each item below, if you can.
1. C[C@@H]1C[C@H]2[C@@H]3C[C@H](F)C4=CC(=O)C=C[C@]4(C)[C@@]3(F)[C@@H](O)C[C@]2(C)[C@@]1(O)C(=O)COC(=O)C(C)(C)C
2. OCC(O)CN1CCN(c2ccccc2)CC1 (centres undefined)
3. CC(C)[C@H]1CN(C)CCN1Cc1cn(C)nc1-c1cccc(Cl)c1
4. O=c1nc2cccc3c2=c(/c1=C(\O)c1ccccc1)c1ccccc1c3=O
5. CCc1cc(C(N)=S)ccn1
6. Fc1ccc(C(c2ccc(F)cc2)N2CCN(C/C=C/c3ccccc3)CC2)cc1
7. CC(C)CCC1(CN2CCCC2=O)C(=O)NC(=O)NC1=O

-2.6
1.1
12
3.2
1.9
-5.9
2.3

Hi there! I need inhibition for each item below, if you can.
1. CCCCOC(=O)c1ccc(N)cc1
2. CC(C)C[C@H](NC(=O)[C@@H]1Cc2ccccc2CN1C(=O)OC(C)(C)C)C(=O)NCC1CCC(C(=O)O)CC1 (some centres undefined)
3. COc1ccc2c(c1O)Cc1ccccc1C2=O

1. 3.6
2. 3
3. 0

Hi there! I need inhibition for each item below, if you can.
1. CCC1(c2ccccc2)NC(=S)N(c2ccc(C)c(C)c2)N1 (centres undefined)
2. CCN(CC)C1=C(Cl)C(=O)C(Cl)C12OCCO2 (centres undefined)
3. CC1(C)CC(=O)C2=C(C1)c1c(ccc3ccccc13)NC2c1ccco1 (centres undefined)
4. O=C(c1ccc(F)cc1)[C@@H]1[C@@H](C(=O)c2ccccc2)[C@@]2(C(=O)Nc3ccccc32)[C@H]2c3ccccc3C=CN12
5. c1ccc2c(c1)Nc1ccccc1S2
6. O=C(OCC1CCCN2CCCCC12)c1ccc2c(c1)OCO2 (centres undefined)
7. Cc1c2c(nc3c(C)cccc13)OC(C)C2 (centres undefined)

1. 1
2. 1
3. 1.8
4. 4.8
5. -1.5
6. -1.9
7. 2.9
